test system: TK-10 renal; assay: NCI-60 one-dose screen, 48 h (100 = growth as untreated, 0 = no growth, -100 = all killed); details: 10 µM
Compounds without any hit were thinned out: in the full panel of roughly 83,000, 20% have a hit.
Task for the reader: assign each of the following molecules its reported growth.
Answers are plain numbers, in %.

# annotated cases, reported growth shown
| MOLECULE | STUDY_SYSTEM | MEAS_VALUE |
| --- | --- | --- |
| CCOc1ccccc1/C=N\N=C(\N)N/N=C/c1ccccc1OCC | TK-10 renal | 67.8 |
| O=C(CNc1nnc(-c2cccnc2SCc2ccccc2)s1)Nc1nc(Cl)cc(Cl)n1 | TK-10 renal | 125 |
| CCOC(=O)CC(S(=O)(=O)c1ccccc1)S(=O)(=O)c1ccccc1 | TK-10 renal | 56.4 |

// for each molecule below, give its growth
1. COc1ccc2cc(-c3nc4ccccc4s3)c(Cl)nc2c1OC
2. Nc1nc(Cn2c(-c3nonc3N)nc3ccccc32)nc(N2CCCCC2)n1
3. Cc1cc(=O)n2nnc3cc(C(F)(F)F)ccc3n12
4. O=C1c2ccccc2-c2c1c1cccnc1c(=O)n2C[C@H](O)CO
5. Clc1nc2ccccc2cc1Cn1nnc(Cc2ccccc2)n1
6. COc1cccc(-c2nc3sccn3c2-c2cccc(S(C)(=O)=O)c2)c1
7. C#C[C@]1(O)CCC2C3CCc4cc(OC5CCCC5)ccc4C3CC[C@@]21C (stereo partly specified)

Result:
1. 118
2. 109
3. 93.6
4. 84.7
5. 60.9
6. 102
7. 86.9

Reference source: PubChem BioAssay (NCI)
